Listed here are compounds together with their documented IC50.
System: A2780
experiment-description: Inhibitory activity against ovarian tumor cell line A2780 after 72 hr continuous exposure to compound
Assay type: functional, cell-based
assay-context: Homo sapiens, A2780, 72 h
The figure you give is taken to be in µM; do not add the unit.

Exercise: I would be grateful if you could share the reported IC50 for COC(=O)C1C(C(=O)O)[C@@H]2CC[C@H]1O2 (single isomer, unassigned) .
Solution: 100

====

Tested on: 143B
experiment-description: Inhibitory activity against tumor osteosarcoma cell line 143B after 72 hr continuous exposure to compound
Assay type: functional, cell-based
assay-context: Homo sapiens
Catalogue of IC50 values
The response must be a number in µM with no trailing unit.

Example results:
CCOC(=O)C1C(C(=O)O)[C@@H]2CC[C@H]1O2 (single isomer, unassigned) : 437
CCOC1OC(=O)[C@H]2[C@@H]1[C@@H]1CC[C@H]2O1 (some centres not stated) : 103
O=C1OC(=O)[C@H]2[C@@H]1[C@@H]1CC[C@H]2O1 : 43

Exercise: Consider the molecule COC(=O)C1C(C(=O)O)[C@@H]2CC[C@H]1O2 (single isomer, unassigned) and give its measured IC50.
Solution: 118

Exercise: Quick one: IC50 of "C[C@@]12C(=O)OC(=O)[C@]1(C)[C@H]1CC[C@@H]2O1" ?
Solution: 10
